Source: ChEMBL document CHEMBL3885881

# Species: Rattus norvegicus
# test-protocol: DrugMatrix - Regimen: Daily Repeat
# Assay type: toxicity, organism-based, Sprague-Dawley
# Design: regimen Daily Repeat, gender Male, age 6-8 weeks
# test-conditions: in vivo, po, 0 mg/kg, 72 h, tissue Plasma, route oral GAVAGE, dose level Control, time 3 day, vehicle 100 % WATER
value-type: LACTATE DEHYDROGENASE (u/L)
Numbers only, in u/L.

Some solved entries appear below for comparison.
molecule	value-type	scale-unit	experimental-value
Cn1cc[nH]c1=S	LACTATE DEHYDROGENASE	u/L	171
NCCCCCC(=O)O	LACTATE DEHYDROGENASE	u/L	316.83
C[C@](N)(Cc1ccc(O)c(O)c1)C(=O)O	LACTATE DEHYDROGENASE	u/L	244.83
C[C@H]1c2cccc(O)c2C(=O)C2=C(O)[C@]3(O)C(=O)C(C(N)=O)=C(O)[C@@H](N(C)C)[C@@H]3[C@@H](O)[C@@H]21.O	LACTATE DEHYDROGENASE	u/L	188.33

Consider now this further molecule.
response.value for CC(O)CO (stereo not given) (field: LACTATE DEHYDROGENASE) = 316.83

###

# Organism: Rattus norvegicus
# test-protocol: DrugMatrix - Regimen: Daily Repeat
# Type: toxicity, organism-based, Sprague-Dawley
# Set-up: regimen Daily Repeat, gender Male, age 6-8 weeks
# test-conditions: in vivo, po, 0 mg/kg, 72 h, tissue Blood, route oral GAVAGE, dose level Control, time 3 day, vehicle .5 % CMC
Consider the following compounds; for each one, report its BASOPHIL.
Numbers only, in %.

Known results for compounds:
compound	BASOPHIL / %
CCCCc1oc2ccccc2c1C(=O)c1cc(I)c(OCCN(CC)CC)c(I)c1 [AMIODARONE]	0
ClC(Br)Br [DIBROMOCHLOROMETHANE]	0
ClC(Cl)Br [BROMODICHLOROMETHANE]	0

// each listed compound needs a value for BASOPHIL
1. Cc1ccc(/N=C/N(C)/C=N/c2ccc(C)cc2C)c(C)c1 [AMITRAZ]
2. CCn1cc(C(=O)O)c(=O)c2cc(F)c(N3CCNCC3)cc21 [NORFLOXACIN]
3. CN1CCN(CCCN2c3ccccc3Sc3ccc(Cl)cc32)CC1 [PROCHLORPERAZINE]

### Response
1. 0
2. 0
3. 0

###

I'd be grateful if you could share measured ABSOLUTE SEGMENTED NEUTROPHIL for these entries.
# Organism: Rattus norvegicus
# test-protocol: DrugMatrix - Regimen: Daily Repeat
# Assay type: toxicity, organism-based, Sprague-Dawley
# Set-up: regimen Daily Repeat, gender Male, age 6-8 weeks
# test-conditions: in vivo, iv, 0 mg/kg, 120 h, tissue Blood, dose level Control, time 5 day, vehicle 100 % SALINE
Please provide the amount together with its unit, number first.

// for each compound in input: emit ABSOLUTE SEGMENTED NEUTROPHIL
1. Cc1ccc(N(CC2=NCCN2)c2cccc(O)c2)cc1
2. COc1cc2c3cc1Oc1cc(ccc1O)C[C@@H]1c4c(cc(OC)c(O)c4Oc4ccc(cc4)C[C@@H]3N(C)CC2)CC[N+]1(C)C.[Cl-]
3. CC[C@]1(O)C[C@H]2CN(CCc3c([nH]c4ccccc34)[C@@](C(=O)OC)(c3cc4c(cc3OC)N(C=O)[C@H]3[C@@](O)(C(=O)OC)[C@H](OC(C)=O)[C@]5(CC)C=CCN6CC[C@]43[C@@H]65)C2)C1

### Response
["958.33 CELLS/uL", "1160 CELLS/uL", "661 CELLS/uL"]
